- PROTOCOL: Plasma levels of XR9051 after single oral dose in Balb/c mice
- Assay type: in vivo
- CONDITION_CONTEXT: mouse, po, p.o. 50 mg kg-1, Balb/c mice, read-out: Cmax in plasma
QUANTITY_NAME: Cmax

COc1cc2c(cc1OC)CN(CCc1ccc(NC(=O)c3cccc(/C=c4\[nH]c(=O)/c(=C/c5ccccc5)n(C)c4=O)c3)cc1)CC2 [XR9051]	1300 ng/mL

* * *

- PROTOCOL: Pharmacokinetics of XR9051 after single i.v. dose in Balb/c mice (plasma, liver, heart, brain; HPLC)
- Format: in vivo, mouse
- CONDITION_CONTEXT: mouse, iv; single i.v. 20 mg kg-1, Balb/c mice, liver; read-out: ratio between AUC for tissue:plasma, liver
QUANTITY_NAME: Kp

COc1cc2c(cc1OC)CN(CCc1ccc(NC(=O)c3cccc(/C=c4\[nH]c(=O)/c(=C/c5ccccc5)n(C)c4=O)c3)cc1)CC2 [XR9051]	79.6

* * *

- PROTOCOL: Plasma levels of XR9051 after single oral dose in Balb/c mice
- Type: in vivo
- CONDITION_CONTEXT: mouse, po, p.o. 50 mg kg-1, Balb/c mice, read-out: Cmax in plasma (molar)
QUANTITY_NAME: Cmax (nM)

COc1cc2c(cc1OC)CN(CCc1ccc(NC(=O)c3cccc(/C=c4\[nH]c(=O)/c(=C/c5ccccc5)n(C)c4=O)c3)cc1)CC2 [XR9051]	1800

* * *

- PROTOCOL: Pharmacokinetics of XR9051 after single i.v. dose in Balb/c mice (plasma, liver, heart, brain; HPLC)
- Type: in vivo, mouse
- CONDITION_CONTEXT: mouse, in vivo, iv; single i.v. 20 mg kg-1, Balb/c mice; read-out: steady-state volume of distribution
QUANTITY_NAME: Vd

COc1cc2c(cc1OC)CN(CCc1ccc(NC(=O)c3cccc(/C=c4\[nH]c(=O)/c(=C/c5ccccc5)n(C)c4=O)c3)cc1)CC2	9.6 L/kg

* * *

- PROTOCOL: in vivo
- Type: in vivo
- CONDITION_CONTEXT: athymic, mouse, tumour (H69/LX4 SCLC xenograft), iv; single i.v. 20 mg kg-1, H69/LX4 tumour; read-out: apparent elimination half-life in tumour tissue (converted)
QUANTITY_NAME: half-life (h)

COc1cc2c(cc1OC)CN(CCc1ccc(NC(=O)c3cccc(/C=c4\[nH]c(=O)/c(=C/c5ccccc5)n(C)c4=O)c3)cc1)CC2	8.79

* * *

- PROTOCOL: Pharmacokinetics of XR9051 after single i.v. dose in Balb/c mice (plasma, liver, heart, brain; HPLC)
- Type: in vivo, mouse
- CONDITION_CONTEXT: mouse, iv; single i.v. 20 mg kg-1, Balb/c mice, two-compartment model, heart; read-out: apparent elimination half-life in heart (converted)
QUANTITY_NAME: half-life (h)

COc1cc2c(cc1OC)CN(CCc1ccc(NC(=O)c3cccc(/C=c4\[nH]c(=O)/c(=C/c5ccccc5)n(C)c4=O)c3)cc1)CC2 [XR9051]	2

* * *

- PROTOCOL: Pharmacokinetics of XR9051 after single i.v. dose in Balb/c mice (plasma, liver, heart, brain; HPLC)
- Type: in vivo, mouse
- CONDITION_CONTEXT: mouse, iv; single i.v. 20 mg kg-1, Balb/c mice, plasma; read-out: AUC from time 0- for plasma
QUANTITY_NAME: AUC (ng·h/mL)

COc1cc2c(cc1OC)CN(CCc1ccc(NC(=O)c3cccc(/C=c4\[nH]c(=O)/c(=C/c5ccccc5)n(C)c4=O)c3)cc1)CC2	11900
